Provenance of the data: ChEMBL document CHEMBL3286335

# System: Cryptococcus neoformans
# assay_comment: Antimicrobial activity against Cryptococcus neoformans after 72 hrs by microbroth dilution method
# Assay type: functional
Entries and their measured MIC follow.

Record excerpt, results attached:
{"compound": "Clc1ccc(COC(Cn2ccnc2)c2ccc(Cl)cc2Cl)c(Cl)c1 (stereo not drawn) [MICONAZOLE]", "MIC": "12.5 µg/mL"}
{"compound": "CCCCCc1cn(C[C@H]2O[C@H](OCCC(C)C)C=CC2=O)nn1", "MIC": "> 50 µg/mL"}

We next turn to a different compound, shown below.
Quick one: MIC for `CC(C)CCO[C@@H]1C=CC(=O)[C@@H](Cn2cc(CCCC=O)nn2)O1` ? > 50 µg/mL

---

# Tested on: Staphylococcus aureus
# assay_comment: Antimicrobial activity against vancomycin-resistant Staphylococcus aureus after 24 hrs by microbroth dilution method
# Type: functional
The threshold is 6 µg/mL. Values of MIC beneath it are tagged satisfied; values meeting or exceeding it are tagged not satisfied.

See these solved cases before continuing.
{"smiles_record": "CC(C)CCO[C@@H]1C=CC(=O)[C@@H](Cn2cc(C3CCCC3)nn2)O1", "answer_label": "not satisfied"}
{"smiles_record": "CC(C)CCO[C@@H]1C=CC(=O)[C@@H](Cn2cc(CCn3cc(C4CC4)nn3)nn2)O1", "answer_label": "not satisfied"}
{"smiles_record": "CCCCCCc1cn(C[C@H]2O[C@H](OCCC(C)C)C=CC2=O)nn1", "answer_label": "not satisfied"}
{"smiles_record": "CC(C)CCO[C@@H]1C=CC(=O)[C@@H](Cn2cc(-c3ccccc3)nn2)O1", "answer_label": "not satisfied"}
{"smiles_record": "CC(C)CCO[C@@H]1C=CC(=O)[C@@H](Cn2cc(CCCC=O)nn2)O1", "answer_label": "not satisfied"}
{"smiles_record": "CCCCO[C@@H]1C=CC(=O)[C@@H](Cn2cc(CCCCl)nn2)O1", "answer_label": "not satisfied"}

Quick check: does `CC(C)CCO[C@@H]1C=CC(=O)[C@@H](Cn2cc(COCC34CC5CC(CC(C5)C3)C4)nn2)O1` have MIC under 6 µg/mL? satisfied

Quick check: does `CC(C)CCO[C@@H]1C=CC(=O)[C@@H](Cn2cc(C3CC3)nn2)O1` have MIC under 6 µg/mL? not satisfied

Quick check: does `CC(C)CO[C@@H]1C=CC(=O)[C@@H](Cn2cc(CCCCl)nn2)O1` have MIC under 6 µg/mL? not satisfied

---

# Tested on: Klebsiella pneumoniae
# assay_comment: Antimicrobial activity against Klebsiella pneumoniae ATCC 27736 after 24 hrs by microbroth dilution method
# Type: functional
# experimental_setup: ATCC 27736, 24 h
readout_label: MIC

Under Klebsiella pneumoniae: MIC value of `CCCCCCc1cn(C[C@H]2O[C@H](OCCC(C)C)C=CC2=O)nn1` ? 1.56 µg/mL

Under Klebsiella pneumoniae: MIC value of CN[C@@H]1[C@@H](O)[C@@H](O[C@@H]2[C@@H](O)[C@H](O[C@H]3O[C@H]([C@@H](C)NC)CC[C@H]3N)[C@@H](N)C[C@H]2N)OC[C@]1(C)O [GENTAMICIN C1] ? 1.56 µg/mL

Under Klebsiella pneumoniae: MIC value of `CC(C)CCO[C@@H]1C=CC(=O)[C@@H](Cn2cc(C(C)(C)C)nn2)O1` ? > 50 µg/mL

Under Klebsiella pneumoniae: MIC value of `CC(C)CCO[C@@H]1C=CC(=O)[C@@H](Cn2cc(CCCC=O)nn2)O1` ? 50 µg/mL

Under Klebsiella pneumoniae: MIC value of CN[C@H](CC(C)C)C(=O)N[C@H]1C(=O)N[C@@H](CC(N)=O)C(=O)N[C@H]2C(=O)N[C@H]3C(=O)N[C@H](C(=O)N[C@H](C(=O)O)c4cc(O)cc(O)c4-c4cc3ccc4O)[C@H](O)c3ccc(c(Cl)c3)Oc3cc2cc(c3O[C@@H]2O[C@H](CO)[C@@H](O)[C@H](O)[C@H]2O[C@H]2C[C@](C)(N)[C@H](O)[C@H](C)O2)Oc2ccc(cc2Cl)[C@H]1O [VANCOMYCIN] ? 12.5 µg/mL

Under Klebsiella pneumoniae: MIC value of `CC(C)CCO[C@@H]1C=CC(=O)[C@@H](Cn2cc(CCCCl)nn2)O1` ? 3.12 µg/mL
